- Tested on: PC-3 prostate
- measurement protocol: NCI-60 one-dose screen, 48 h
- condition info: 10 µM unless noted
The panel holds about 83,000 compounds, 20% with a hit somewhere; the sample as a whole holds those more often. The source made the active and inactive calls. How the source made its calls: active means growth percent below 10; inactive means the rest.
Pick one: label 1 for active, label 0 for inactive

1) Cc1cc2c([nH]1)CSc1cc(S(=O)(=O)c3ccccc3)c(=O)[nH]c1-2; label 0
2) O=C(Cn1c(=O)sc2ccccc21)NNS(=O)(=O)c1ccccc1[N+](=O)[O-]; label 0
3) O=C(/C=C/c1cccs1)c1ccc(Cl)nc1; label 0
4) Cc1nc(N2CCOCC2)sc1S(N)(=O)=O; label 0
5) C=C1CC[C@@H]2[C@](C)(COC(C)=O)[C@H](OC(C)=O)CC[C@@]2(C)[C@@H]1CC(Sc1ccccc1)C1=CCOC1=O (stereo partly drawn); label 0
6) CCN(CC)c1ccc(/C=C/C(=O)c2ccc(Nc3nc(Nc4ccccc4)nc(Nc4ccccc4)n3)cc2)cc1; label 0
7) CC1(C)CC2=C3C=C[C@@H]4[C@@]5(C)CCC(=O)C(C)(C)[C@@H]5CC[C@@]4(C)[C@]3(C)CC[C@@]2(C(=O)O)CC1=O; label 0
8) CCOC(=O)c1cc(C(=O)c2cc(OC)c(OC)c(OC)c2)n2ccc(-c3ccncc3)cc12; label 0
9) Cc1ccc(Cc2cnc(NC(=O)c3cc(Br)cs3)s2)cc1; label 0
10) N#CCSc1nnc2n(Cc3ccccc3)c(=O)c3c4c(sc3n12)CCCC4; label 0

Read the next record carefully.
Outcome? COc1ccc(-c2nn(-c3ccccc3)cc2/C=C2/SC(=S)N(C)C2=O)cc1
label 0
